assay_overview: Multiple ascending dose part
Format: in vivo, human
conditions_used: human, plasma, oral, 320 mg, Cmax, geometric mean (%CVb), multiple‐dose, Day 1, 320 mg, N = 7
readout_type: Cmax (ng/mL)

C=C(C)[C@@H]1CC[C@]2(NCCN3CCS(=O)(=O)CC3)CC[C@]3(C)[C@H](CC[C@@H]4[C@@]5(C)CC=C(C6=CC[C@@](CF)(C(=O)O)CC6)C(C)(C)[C@@H]5CC[C@]43C)[C@@H]12 ... 1040

====

assay_overview: Single ascending dose part
Type: in vivo, human
conditions_used: human, plasma, oral, 30 mg, tmax, median (range), single dose 30 mg, N = 6
readout_type: Tmax (h)

C=C(C)[C@@H]1CC[C@]2(NCCN3CCS(=O)(=O)CC3)CC[C@]3(C)[C@H](CC[C@@H]4[C@@]5(C)CC=C(C6=CC[C@@](CF)(C(=O)O)CC6)C(C)(C)[C@@H]5CC[C@]43C)[C@@H]12 [GSK3640254] ... 4

====

assay_overview: Single ascending dose part
Type: in vivo, human
conditions_used: human, plasma, oral, half‐life, abstract summary of the FTIH study
readout_type: half-life

C=C(C)[C@@H]1CC[C@]2(NCCN3CCS(=O)(=O)CC3)CC[C@]3(C)[C@H](CC[C@@H]4[C@@]5(C)CC=C(C6=CC[C@@](CF)(C(=O)O)CC6)C(C)(C)[C@@H]5CC[C@]43C)[C@@H]12 ... ~24 h

====

assay_overview: Single ascending dose part
Assay type: in vivo, human
conditions_used: human, plasma, oral, 700 mg
readout_type: Cmax (ng/mL)

C=C(C)[C@@H]1CC[C@]2(NCCN3CCS(=O)(=O)CC3)CC[C@]3(C)[C@H](CC[C@@H]4[C@@]5(C)CC=C(C6=CC[C@@](CF)(C(=O)O)CC6)C(C)(C)[C@@H]5CC[C@]43C)[C@@H]12 ... 1720

====

assay_overview: Single ascending dose part
Assay type: in vivo, human
conditions_used: human, plasma, oral, 10 mg
readout_type: Cmax (ng/mL)

C=C(C)[C@@H]1CC[C@]2(NCCN3CCS(=O)(=O)CC3)CC[C@]3(C)[C@H](CC[C@@H]4[C@@]5(C)CC=C(C6=CC[C@@](CF)(C(=O)O)CC6)C(C)(C)[C@@H]5CC[C@]43C)[C@@H]12 ... 47

====

assay_overview: Single ascending dose part
Format: in vivo, human
conditions_used: human, plasma, oral, median tmax, after administration, range across doses
readout_type: Tmax

C=C(C)[C@@H]1CC[C@]2(NCCN3CCS(=O)(=O)CC3)CC[C@]3(C)[C@H](CC[C@@H]4[C@@]5(C)CC=C(C6=CC[C@@](CF)(C(=O)O)CC6)C(C)(C)[C@@H]5CC[C@]43C)[C@@H]12 ... 3 to 4.5 h

====

assay_overview: Multiple ascending dose part
Type: in vivo, human
conditions_used: human, plasma, oral, 320 mg, AUC0‐24, geometric mean (%CVb), multiple‐dose, Day 1, 320 mg, N = 7
readout_type: AUC (ng·h/mL)

C=C(C)[C@@H]1CC[C@]2(NCCN3CCS(=O)(=O)CC3)CC[C@]3(C)[C@H](CC[C@@H]4[C@@]5(C)CC=C(C6=CC[C@@](CF)(C(=O)O)CC6)C(C)(C)[C@@H]5CC[C@]43C)[C@@H]12 ... 13500

====

assay_overview: Single ascending dose part
Format: in vivo, human
conditions_used: human, plasma, oral, 400 mg, tmax, median (range), single dose 400 mg, N = 6
readout_type: Tmax (h)

C=C(C)[C@@H]1CC[C@]2(NCCN3CCS(=O)(=O)CC3)CC[C@]3(C)[C@H](CC[C@@H]4[C@@]5(C)CC=C(C6=CC[C@@](CF)(C(=O)O)CC6)C(C)(C)[C@@H]5CC[C@]43C)[C@@H]12 ... 3.3

====

assay_overview: Single ascending dose part
Format: in vivo, human
conditions_used: human, plasma, oral, 10 mg, tmax, median (range), single dose 10 mg, N = 6
readout_type: Tmax (h)

C=C(C)[C@@H]1CC[C@]2(NCCN3CCS(=O)(=O)CC3)CC[C@]3(C)[C@H](CC[C@@H]4[C@@]5(C)CC=C(C6=CC[C@@](CF)(C(=O)O)CC6)C(C)(C)[C@@H]5CC[C@]43C)[C@@H]12 ... 3.5

====

assay_overview: Single ascending dose part
Assay type: in vivo, human
conditions_used: human, plasma, oral, 3 mg, tmax, median (range), single dose 3 mg, N = 6
readout_type: Tmax (h)

C=C(C)[C@@H]1CC[C@]2(NCCN3CCS(=O)(=O)CC3)CC[C@]3(C)[C@H](CC[C@@H]4[C@@]5(C)CC=C(C6=CC[C@@](CF)(C(=O)O)CC6)C(C)(C)[C@@H]5CC[C@]43C)[C@@H]12 ... 4.5

====

assay_overview: Single ascending dose part
Type: in vivo, human
conditions_used: human, plasma, oral, mean half‐life, 10‐ to 700‐mg single doses
readout_type: half-life

C=C(C)[C@@H]1CC[C@]2(NCCN3CCS(=O)(=O)CC3)CC[C@]3(C)[C@H](CC[C@@H]4[C@@]5(C)CC=C(C6=CC[C@@](CF)(C(=O)O)CC6)C(C)(C)[C@@H]5CC[C@]43C)[C@@H]12 ... ~24 h

====

assay_overview: Single ascending dose part
Assay type: in vivo, human
conditions_used: human, plasma, oral, 3 mg
readout_type: Cmax

C=C(C)[C@@H]1CC[C@]2(NCCN3CCS(=O)(=O)CC3)CC[C@]3(C)[C@H](CC[C@@H]4[C@@]5(C)CC=C(C6=CC[C@@](CF)(C(=O)O)CC6)C(C)(C)[C@@H]5CC[C@]43C)[C@@H]12 ... 14 ng/mL

====

assay_overview: Multiple ascending dose part
Assay type: in vivo, human
conditions_used: human, plasma, oral, 100 mg, AUC0‐24, geometric mean (%CVb), multiple‐dose, Day 1, 100 mg, N = 6
readout_type: AUC (ng·h/mL)

C=C(C)[C@@H]1CC[C@]2(NCCN3CCS(=O)(=O)CC3)CC[C@]3(C)[C@H](CC[C@@H]4[C@@]5(C)CC=C(C6=CC[C@@](CF)(C(=O)O)CC6)C(C)(C)[C@@H]5CC[C@]43C)[C@@H]12 ... 6800

====

assay_overview: Single ascending dose part
Format: in vivo, human
conditions_used: human, plasma, oral, 700 mg
readout_type: AUC (ng·h/mL)

C=C(C)[C@@H]1CC[C@]2(NCCN3CCS(=O)(=O)CC3)CC[C@]3(C)[C@H](CC[C@@H]4[C@@]5(C)CC=C(C6=CC[C@@](CF)(C(=O)O)CC6)C(C)(C)[C@@H]5CC[C@]43C)[C@@H]12 ... 39700

====

assay_overview: Multiple ascending dose part
Type: in vivo, human
conditions_used: human, plasma, oral, 100 mg, Cmax, geometric mean (%CVb), multiple‐dose, Day 1, 100 mg, N = 6
readout_type: Cmax (ng/mL)

C=C(C)[C@@H]1CC[C@]2(NCCN3CCS(=O)(=O)CC3)CC[C@]3(C)[C@H](CC[C@@H]4[C@@]5(C)CC=C(C6=CC[C@@](CF)(C(=O)O)CC6)C(C)(C)[C@@H]5CC[C@]43C)[C@@H]12 ... 536

====

assay_overview: Multiple ascending dose part
Assay type: in vivo, human
conditions_used: human, plasma, oral, 50 mg, tmax, median (range), multiple‐dose, Day 1, 50 mg, N = 6
readout_type: Tmax (h)

C=C(C)[C@@H]1CC[C@]2(NCCN3CCS(=O)(=O)CC3)CC[C@]3(C)[C@H](CC[C@@H]4[C@@]5(C)CC=C(C6=CC[C@@](CF)(C(=O)O)CC6)C(C)(C)[C@@H]5CC[C@]43C)[C@@H]12 ... 3.8

====

assay_overview: Single ascending dose part
Type: in vivo, human
conditions_used: human, plasma, oral, 100 mg
readout_type: Cmax (ng/mL)

C=C(C)[C@@H]1CC[C@]2(NCCN3CCS(=O)(=O)CC3)CC[C@]3(C)[C@H](CC[C@@H]4[C@@]5(C)CC=C(C6=CC[C@@](CF)(C(=O)O)CC6)C(C)(C)[C@@H]5CC[C@]43C)[C@@H]12 [GSK3640254] ... 372

====

assay_overview: Single ascending dose part
Assay type: in vivo, human
conditions_used: human, plasma, oral, 30 mg
readout_type: Cmax (ng/mL)

C=C(C)[C@@H]1CC[C@]2(NCCN3CCS(=O)(=O)CC3)CC[C@]3(C)[C@H](CC[C@@H]4[C@@]5(C)CC=C(C6=CC[C@@](CF)(C(=O)O)CC6)C(C)(C)[C@@H]5CC[C@]43C)[C@@H]12 ... 130

====

assay_overview: Single ascending dose part
Type: in vivo, human
conditions_used: human, plasma, oral, 200 mg, tmax, median (range), single dose 200 mg, N = 6
readout_type: Tmax

C=C(C)[C@@H]1CC[C@]2(NCCN3CCS(=O)(=O)CC3)CC[C@]3(C)[C@H](CC[C@@H]4[C@@]5(C)CC=C(C6=CC[C@@](CF)(C(=O)O)CC6)C(C)(C)[C@@H]5CC[C@]43C)[C@@H]12 ... 3 h

// provenance: paper PMC7670640
